# target-of-assay: NLRP3 inflammasome (Mus musculus)
# Construct: bone marrow-derived macrophages (BMDMs) from wild type (WT) mice first primed with 1 μg/ml lipopolysaccharide (LPS); endogenous in cells; host or cells: primary BMDMs from wild type mice
# Sequence (Q8R4B8 whole entry): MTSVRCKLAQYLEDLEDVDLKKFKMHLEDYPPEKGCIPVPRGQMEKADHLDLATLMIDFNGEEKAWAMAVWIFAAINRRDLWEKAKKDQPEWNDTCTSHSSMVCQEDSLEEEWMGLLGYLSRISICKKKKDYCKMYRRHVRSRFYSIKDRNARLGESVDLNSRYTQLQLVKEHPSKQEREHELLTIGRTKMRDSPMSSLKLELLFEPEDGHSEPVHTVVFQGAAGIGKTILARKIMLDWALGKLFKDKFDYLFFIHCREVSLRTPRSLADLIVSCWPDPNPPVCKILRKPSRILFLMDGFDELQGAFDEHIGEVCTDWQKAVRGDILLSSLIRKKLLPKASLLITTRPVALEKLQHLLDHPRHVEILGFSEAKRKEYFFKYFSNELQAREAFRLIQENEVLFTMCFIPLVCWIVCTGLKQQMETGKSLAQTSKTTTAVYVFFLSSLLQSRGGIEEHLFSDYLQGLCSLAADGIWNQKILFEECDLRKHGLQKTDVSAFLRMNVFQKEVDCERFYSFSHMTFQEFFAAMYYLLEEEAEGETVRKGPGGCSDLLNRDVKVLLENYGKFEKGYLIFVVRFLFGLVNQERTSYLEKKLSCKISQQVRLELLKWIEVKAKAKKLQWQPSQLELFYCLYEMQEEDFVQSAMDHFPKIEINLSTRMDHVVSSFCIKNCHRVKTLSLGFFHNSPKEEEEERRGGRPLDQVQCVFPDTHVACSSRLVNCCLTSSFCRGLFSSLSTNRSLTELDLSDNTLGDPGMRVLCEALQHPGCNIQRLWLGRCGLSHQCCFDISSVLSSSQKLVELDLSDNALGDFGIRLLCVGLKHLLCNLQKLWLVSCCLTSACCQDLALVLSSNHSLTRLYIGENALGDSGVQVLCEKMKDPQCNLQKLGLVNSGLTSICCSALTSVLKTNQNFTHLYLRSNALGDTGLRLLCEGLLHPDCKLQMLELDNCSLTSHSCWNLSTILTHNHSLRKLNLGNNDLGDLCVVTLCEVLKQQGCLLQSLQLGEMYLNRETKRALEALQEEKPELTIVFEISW
# assay-remarks: Inhibition of NLRP3-mediated IL-1β release in BMDMs (LPS + Bz-ATP), ELISA
# Type: cell-based
# reported-conditions: BMDM; BMDMs from WT mice, LPS + BzATP, compound at 1 μM; read-out: Inhibitory rate of IL-1β release
experimental-readout: inhibition at 1 µM

Nc1ccc(S(=O)(=O)NCCC(=O)Nc2c3c(cc4c2CCC4)CCC3)cc1	22.3%
Nc1ccc(S(=O)(=O)N[C@H](Cc2ccccc2)C(=O)Nc2c3c(cc4c2CCC4)CCC3)cc1	46.4%
O=C(Nc1c2c(cc3c1CCC3)CCC2)[C@H](Cc1ccc(O)cc1)NS(=O)(=O)c1ccc([N+](=O)[O-])cc1	34.7%
CC(C)[C@H](NS(=O)(=O)c1ccc(N)cc1)C(=O)Nc1c2c(cc3c1CCC3)CCC2	50.2%
O=C(Nc1c2c(cc3c1CCC3)CCC2)C1CCCN1S(=O)(=O)c1ccc([N+](=O)[O-])cc1 (stereo not shown)	25.7%
O=C(Nc1c2c(cc3c1CCC3)CCC2)[C@H](Cc1ccccc1)NS(=O)(=O)c1ccc([N+](=O)[O-])cc1	19.8%
Nc1ccc(S(=O)(=O)N[C@@H](Cc2ccccc2)C(=O)Nc2c3c(cc4c2CCC4)CCC3)cc1	38%
O=C(CCNS(=O)(=O)c1ccc([N+](=O)[O-])cc1)Nc1c2c(cc3c1CCC3)CCC2	36.5%
O=C(Nc1c2c(cc3c1CCC3)CCC2)[C@@H](Cc1ccccc1)NS(=O)(=O)c1ccc([N+](=O)[O-])cc1	49.5%
CC(C)[C@@H](NS(=O)(=O)c1ccc(N)cc1)C(=O)Nc1c2c(cc3c1CCC3)CCC2	8.4%
